Values compiled from paper PMC12167799.

Molecular target: T1, SWSAP1 K18A (Walker A);hSWS1 (Homo sapiens;Homo sapiens, UniProt Q6NVH7;Q19AV6 22-250;1-140, K39A|)
T1 sequence 1: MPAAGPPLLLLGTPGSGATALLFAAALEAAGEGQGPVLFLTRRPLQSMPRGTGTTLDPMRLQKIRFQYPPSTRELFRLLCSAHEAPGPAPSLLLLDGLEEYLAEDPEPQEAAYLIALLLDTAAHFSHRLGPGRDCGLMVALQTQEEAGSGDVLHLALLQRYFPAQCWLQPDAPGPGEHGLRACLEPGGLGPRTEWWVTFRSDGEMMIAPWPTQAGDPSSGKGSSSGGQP
T1 sequence 2: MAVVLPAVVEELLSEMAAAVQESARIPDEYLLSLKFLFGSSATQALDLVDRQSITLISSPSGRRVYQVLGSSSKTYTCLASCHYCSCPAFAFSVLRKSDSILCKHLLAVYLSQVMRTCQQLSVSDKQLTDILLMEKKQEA
Assay: fluorescence polarization; 2 mM ADP; FPA: 5 nM 6-FAM DNA, 37 C, 2 mM nucleotide where stated (buffer not given in material); EMSA: 0.05 uM 6-FAM DNA, 5%/15% native PAGE; RAD51 filaments: 2 mM ATP
Details: protein: recombinant;recombinant; tags: N-terminal 6xHis-TEV, cleaved;none; copies: 1;1; label: 3' 6-FAM on strand 1; 3' overhang 20 nt
assayReadout: pKd
Lab note: report pKd as minus log10 of the concentration in molar units, number only.

Lookup: Could you tell me which pKd is on file for 3'-overhang (dsDNA) DNA 1: CTTGACAAGCTTGCGCACT DNA 2: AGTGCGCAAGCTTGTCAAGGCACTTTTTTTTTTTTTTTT ?
Found: 5.06
